- Test system: DU-145
- assay: Growth inhibition of human DU145 cells
- Assay type: functional
Below: a set of entries, each annotated with reported GI50.
Give your result in µg/mL as a bare value.

molecule	unit_info	GI50
COC(=O)[C@H](CCC=C(C)C)[C@@H]1[C@@H](O)C[C@]2(C)C3=CC[C@H]4C(C)(C)C(=O)CC[C@]4(C)[C@H]3CC[C@@]12C [METHYL KULONATE]	µg/mL	3.7
CC(C)=CCC[C@@H](C)[C@@H]1[C@@H](O)C[C@]2(C)C3=CC[C@H]4C(C)(C)C(=O)CC[C@]4(C)[C@H]3CC[C@@]12C [KULINONE]	µg/mL	3.6
COC(=O)[C@H](C/C=C/C(C)(C)O)[C@@H]1[C@@H](O)C[C@]2(C)C3=CC[C@H]4C(C)(C)C(=O)CC[C@]4(C)[C@H]3CC[C@@]12C [MELIASTATIN 2]	µg/mL	6.3

Here's the next entry for you.
Exercise: Form field: reported GI50 of C[C@H](C/C=C/C(C)(C)O)[C@@H]1[C@@H](O)C[C@]2(C)C3=CC[C@H]4C(C)(C)C(=O)CC[C@]4(C)[C@H]3CC[C@@]12C [MELIASTATIN 1]
Key: 1.9
